The measured values listed here are drawn from patent US20220306744A1.

tgt: T1, human PD-1 expressed on cells (CHO TREX human PD1 cell line, full-length human PD-1 sequence) (human, UniProt Q15116 21-288)
T1 construct: Also used for human PD-1 on Jurkat reporter cells, on PathHunter cells and on PHA-stimulated human CD4+ T cells; also called CHO human PD1 cells; CHO human PD-1 cells
procedure_details: worded summary of the screens
measured_attribute: binding result

binder: 1.52b (VHH) VHH: QVQLVESGGGLVKPGGSLRLSCAASGFTFSDNSMTWMRQAPGKGLEWVSYISSGGGVKYYADSVKGRFTISRDNAKNSLYLQMNSLRADDTAVYYCAREAPLRLGESPHDAFDIWGQGTMVTVSS
value_reported: binds
--
binder: 1.64b (VHH, also called Humabody 1.64b) VHH: EVQLVESGGGLVKPGGSLRLSCAASGFTFSDSSMTWMRQAPGKGLEWVSYISSGGGVKFYADSVKGRFTISRDNAKNSLYLQMNSLRADDTAVYYCAREAPLRLGESPHDAFDISGQGTMVTVSS
value_reported: binds
